Test system: MDA-MB-468 cancer cell line
assay name: Cell growth assay (WST-8)
Type: cell-based
condition summary: Homo sapiens, MDA-MB-468, 96 h; Table 2 prints no column heads; columns and unit as in Table 1; WST-8, 4 days; read-out: Inhibition of cell growth IC50, MDA-MB-468 cancer cell line (pro-drugs, Table 2)
endpoint: IC50

[
  {
    "molecule": "CC(C)OC(=O)OCOP(=O)(OCOC(=O)OC(C)C)C(F)(F)c1ccc2[nH]c(C(=O)N[C@H]3CCCCC4CC[C@@H](C(=O)NC(CCC(N)=O)C(=O)NCc5ccccc5)N4C3=O)cc2c1 (stereo partly drawn) [Example 68]",
    "test result": "> 100 µM"
  }
]

# query: IC50 of entry CC(C)OC(=O)OCOP(=O)(OCOC(=O)OC(C)C)C(F)(F)c1ccc2[nH]c(C(=O)N[C@H]3CCCCC4CC[C@@H](C(=O)NCCc5cn[nH]c5)N4C3=O)cc2c1 (stereo partly drawn) [Example 69] > 100 µM

Given CCCCCCCCCCCCCCCCOP(=O)(OCCCCCCCCCCCCCCCC)C(F)(F)c1ccc2cc(C(=O)N[C@H]3CCCC[C@H]4CC[C@@H](C(=O)NCCc5cn[nH]c5)N4C3=O)[nH]c2c1 , state its recorded IC50. > 100 µM
